Reported MIC values are given for each entry in this list.
- Tested on: Haemophilus influenzae
- Measurement Protocol: In vitro antimicrobial activity against Haemophilus influenzae.
- Format: functional
# unit: µg/mL | format: bare number

Lab note: CC[C@H]1OC(=O)C[C@@H](O)[C@H](C)[C@@H](O[C@@H]2O[C@H](C)[C@@H](O)[C@H](N(C)C)[C@H]2O)[C@@H](CCOC(C(F)(F)F)C(F)(F)F)C[C@@H](C)C(=O)/C=C/C(C)=C/[C@@H]1CO[C@@H]1O[C@H](C)[C@@H](O)[C@@H](OC)[C@H]1OC gave MIC of 64

###

- Test system: Streptococcus pyogenes
- Measurement Protocol: In vitro antimicrobial activity against Streptococcus pyogenes C203
- Format: functional
Please use rule met for MIC under 2 µg/mL and rule not met for everything else, ties included.

Structure As Smiles | Category Label
CC[C@H]1OC(=O)C[C@@H](O)[C@H](C)[C@@H](O[C@@H]2O[C@H](C)[C@@H](O[C@H]3C[C@@](C)(O)[C@@H](O)[C@H](C)O3)[C@H](N(C)C)[C@H]2O)[C@@H](CCNCCc2ccccc2)C[C@@H](C)C(=O)/C=C/C(C)=C/[C@@H]1CO | rule not met
CC[C@H]1OC(=O)C[C@@H](O)[C@H](C)[C@@H](O[C@@H]2O[C@H](C)[C@@H](O)[C@H](N(C)C)[C@H]2O)[C@@H](CCOc2ccc(C=O)cc2)C[C@@H](C)C(=O)/C=C/C(C)=C/[C@@H]1CO[C@@H]1O[C@H](C)[C@@H](O)[C@@H](OC)[C@H]1OC | rule met
CC[C@H]1OC(=O)C[C@@H](O)[C@H](C)[C@@H](O[C@@H]2O[C@H](C)[C@@H](O)[C@H](N(C)C)[C@H]2O)[C@@H](CCSc2ccccc2)C[C@@H](C)C(=O)/C=C/C(C)=C/[C@@H]1CO[C@@H]1O[C@H](C)[C@@H](O)[C@@H](OC)[C@H]1OC | rule met
CC[C@H]1OC(=O)C[C@@H](O)[C@H](C)[C@@H](O[C@@H]2O[C@H](C)[C@@H](O)[C@H](N(C)C)[C@H]2O)[C@@H](CCOc2ccccc2)C[C@@H](C)C(=O)/C=C/C(C)=C/[C@@H]1CO[C@@H]1O[C@H](C)[C@@H](O)[C@@H](OC)[C@H]1OC | rule met

Next item in the queue.
Asked: Decide: MIC of CC[C@H]1OC(=O)C[C@@H](O)[C@H](C)[C@@H](O[C@@H]2O[C@H](C)[C@@H](O[C@H]3C[C@@](C)(O)[C@@H](O)[C@H](C)O3)[C@H](N(C)C)[C@H]2O)[C@@H](CCOc2ncnc3ccccc23)C[C@@H](C)C(=O)/C=C/C(C)=C/[C@@H]1CO[C@@H]1O[C@H](C)[C@@H](O)[C@@H](OC)[C@H]1OC strictly below 2 µg/mL?
Given back: rule not met

###

- Test system: Staphylococcus epidermidis
- Measurement Protocol: In vitro antimicrobial activity against Staphylococcus epidermidis EPI1
- Type: functional
Reported Property: MIC
Hi, when you answer, please include the unit after the number. Thanks!

Molecule | Assayed System | Experimental Result
CC[C@H]1OC(=O)C[C@@H](O)[C@H](C)[C@@H](O[C@@H]2O[C@H](C)[C@@H](O)[C@H](N(C)C)[C@H]2O)[C@@H](C)C[C@@H](C)C(=O)/C=C/C(C)=C/[C@@H]1CO | Staphylococcus epidermidis | 2 µg/mL
CC[C@H]1OC(=O)C[C@@H](O)[C@H](C)[C@@H](O[C@@H]2O[C@H](C)[C@@H](O[C@H]3C[C@@](C)(O)[C@@H](O)[C@H](C)O3)[C@H](N(C)C)[C@H]2O)[C@@H](C)C[C@@H](C)C(=O)/C=C/C(C)=C/[C@@H]1CO[C@@H]1O[C@H](C)[C@@H](O)[C@@H](O)[C@H]1OC [DEFORMYLMACROCIN] | Staphylococcus epidermidis | 2 µg/mL

Lab note: CC[C@H]1OC(=O)C[C@@H](O)[C@H](C)[C@@H](O[C@@H]2O[C@H](C)[C@@H](O)[C@H](N(C)C)[C@H]2O)[C@@H](CCN2CCCCCCC2)C[C@@H](C)C(=O)/C=C/C(C)=C/[C@@H]1CO[C@@H]1O[C@H](C)[C@@H](O)[C@@H](OC)[C@H]1OC gave MIC of 0.5 µg/mL

Lab note: CC[C@H]1OC(=O)C[C@@H](O)[C@H](C)[C@@H](O[C@@H]2O[C@H](C)[C@@H](O)[C@H](N(C)C)[C@H]2O)[C@@H](CCI)C[C@@H](C)C(=O)/C=C/C(C)=C/[C@@H]1CO[C@@H]1O[C@H](C)[C@@H](O)[C@@H](OC)[C@H]1OC gave MIC of 0.25 µg/mL

Lab note: CC[C@H]1OC(=O)C[C@@H](O)[C@H](C)[C@@H](O[C@@H]2O[C@H](C)[C@@H](O)[C@H](N(C)C)[C@H]2O)[C@@H](CC=O)C[C@@H](C)C(=O)/C=C/C(C)=C/[C@@H]1C gave MIC of 0.25 µg/mL

###

- Tested on: Streptococcus pyogenes
- Measurement Protocol: In vitro antimicrobial activity against Streptococcus pyogenes C203
- Type: functional
Reported Property: MIC

Structure As Smiles | MIC
CC[C@H]1OC(=O)C[C@@H](O)[C@H](C)[C@@H](O[C@@H]2O[C@H](C)[C@@H](O)[C@H](N(C)C)[C@H]2O)[C@@H](CCOc2ccc(-c3ccccc3)cc2)C[C@@H](C)C(=O)/C=C/C(C)=C/[C@@H]1CO[C@@H]1O[C@H](C)[C@@H](O)[C@@H](OC)[C@H]1OC | 0.25 µg/mL
CC[C@H]1OC(=O)C[C@@H](O)[C@H](C)[C@@H](O[C@@H]2O[C@H](C)[C@@H](O[C@H]3C[C@@](C)(O)[C@@H](O)[C@H](C)O3)[C@H](N(C)C)[C@H]2O)[C@@H](CCN2C(=O)c3ccccc3C2=O)C[C@@H](C)C(=O)/C=C/C(C)=C/[C@@H]1CO | 128 µg/mL

Lab note: CC[C@H]1OC(=O)C[C@@H](O)[C@H](C)[C@@H](O[C@@H]2O[C@H](C)[C@@H](O)[C@H](N(C)C)[C@H]2O)[C@@H](CCI)C[C@@H](C)C(=O)/C=C/C(C)=C/[C@@H]1CO[C@@H]1O[C@H](C)[C@@H](O)[C@@H](OC)[C@H]1OC gave MIC of 0.5 µg/mL

Lab note: CC[C@H]1OC(=O)C[C@@H](O)[C@H](C)[C@@H](O[C@@H]2O[C@H](C)[C@@H](O)[C@H](N(C)C)[C@H]2O)[C@@H](CCN2C(=O)c3ccccc3C2=O)C[C@@H](C)C(=O)/C=C/C(C)=C/[C@@H]1C gave MIC of 64 µg/mL

###

Reported MIC values are given for each entry in this list.
- Tested on: Streptococcus pyogenes
- Measurement Protocol: In vitro antimicrobial activity against Streptococcus pyogenes C203
- Assay type: functional
# unit: µg/mL | format: bare number

Structure As Smiles | Unit Abbreviation | MIC
CC[C@H]1OC(=O)C[C@@H](O)[C@H](C)[C@@H](O[C@@H]2O[C@H](C)[C@@H](O[C@H]3C[C@@](C)(O)[C@@H](O)[C@H](C)O3)[C@H](N(C)C)[C@H]2O)[C@@H](CCN=[N+]=[N-])C[C@@H](C)C(=O)/C=C/C(C)=C/[C@@H]1CO[C@@H]1O[C@H](C)[C@@H](O)[C@@H](OC)[C@H]1OC | µg/mL | 2
CC[C@H]1OC(=O)C[C@@H](O)[C@H](C)[C@@H](O[C@@H]2O[C@H](C)[C@@H](O[C@H]3C[C@@](C)(O)[C@@H](O)[C@H](C)O3)[C@H](N(C)C)[C@H]2O)[C@@H](CCO)C[C@@H](C)C(=O)/C=C/C(C)=C/[C@@H]1CO[C@@H]1O[C@H](C)[C@@H](O)[C@@H](OC)[C@H]1OC | µg/mL | 2
CC[C@H]1OC(=O)C[C@@H](O)[C@H](C)[C@@H](O[C@@H]2O[C@H](C)[C@@H](O)[C@H](N(C)C)[C@H]2O)[C@@H](CCBr)C[C@@H](C)C(=O)/C=C/C(C)=C/[C@@H]1CO[C@@H]1O[C@H](C)[C@@H](O)[C@@H](OC)[C@H]1OC | µg/mL | 0.12

Streptococcus pyogenes data for CC[C@H]1OC(=O)C[C@@H](O)[C@H](C)[C@@H](O[C@@H]2O[C@H](C)[C@@H](O[C@H]3C[C@@](C)(O)[C@@H](O)[C@H](C)O3)[C@H](N(C)C)[C@H]2O)[C@@H](CCSc2nnnn2C)C[C@@H](C)C(=O)/C=C/C(C)=C/[C@@H]1CO[C@@H]1O[C@H](C)[C@@H](O)[C@@H](OC)[C@H]1OC ; its MIC: 1
